Test system: MDA-MB-435 melanoma
Test: NCI-60 one-dose screen, 48 h
Conditions: 10 µM unless noted
Experimental: Growth inhibition of the MDA-MB-435 human Melanoma tumor cell line is measured as a screen for anti-cancer activity. Cells are grown in 96 well plates and exposed to the test compound for 48 hours. Compounds are tested at a single concentration, which is 10^-5 M for most compounds. The reported endpoint is percent growth (GI% or GIPRCNT), where numbers from 0 - 100% represent growth inhibition, and numbers from -100% - 0 represent cell death. […]
About 83,000 compounds went through this panel and 20% of them were active in at least one assay; those are over-represented in the sample as a whole. The source made the active and inactive calls. Rule for the calls: active = growth percent below 10; inactive = the rest.
The reply should be one of these categories: true (1) for active, false (0) for inactive

Please review the entries below; each comes with its answer.
# Compound, Group
measured = [
    ("C=CN(C)S(C)(=O)=O", "true (1)"),
    ("Cc1c(Cc2ccccc2)c(=O)oc2c(C)c(OCC(=O)n3nc(C#N)cc3N)ccc12", "false (0)"),
    ("CCCCCCCCCCCCc1ccc([N+](CC)(CC)CC)cc1", "false (0)"),
    ("CC(=O)O.[In]", "false (0)"),
    ("O=C1c2cc([N+](=O)[O-])ccc2-c2cc(Cl)c(NC(=O)C(F)(F)F)cc21", "false (0)"),
    ("COc1cc2cn3c4ccc(O)cc4[nH]c(=O)c3c2cc1OC", "true (1)"),
    ("CC(=O)N(N=O)c1ccc([N+](=O)[O-])cc1Cl", "false (0)"),
    ("C=CCC(CCC(CC=C)C(=O)OCC)C(=O)OCC (stereo unspecified)", "false (0)"),
]

QUERY: Can you look up the reported call for COc1ccc2oc(=O)cc(CN3C(=O)S/C(=C\c4ccc(Cl)cc4)C3=O)c2c1 for me?
RESULT: false (0)
